- target system: mouse BLyS protein (mouse, UniProt Q9WU72 69-309)
- Sequence (Q9WU72 69-309): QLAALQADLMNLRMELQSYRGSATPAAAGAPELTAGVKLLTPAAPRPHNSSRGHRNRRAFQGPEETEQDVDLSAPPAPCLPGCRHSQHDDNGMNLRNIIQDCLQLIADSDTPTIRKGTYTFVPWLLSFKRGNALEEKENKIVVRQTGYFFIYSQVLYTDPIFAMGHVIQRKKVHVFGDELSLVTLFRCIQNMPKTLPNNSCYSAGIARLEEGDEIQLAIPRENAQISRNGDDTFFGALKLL
- protocol: cell-based or functional assay
observable: mouse B lymphocyte proliferation (OD450 nm), antibody 100 nM
Could you give me the number in OD450 nm? Just the number is fine.

Sample answers from the record:
binder: 97E7B3F2 (antibody, V domains shown, Mouse hybridoma monoclonal antibody purified on Protein G) VH: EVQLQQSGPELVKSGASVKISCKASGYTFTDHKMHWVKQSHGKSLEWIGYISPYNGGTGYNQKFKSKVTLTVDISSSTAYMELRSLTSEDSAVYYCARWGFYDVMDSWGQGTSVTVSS VL: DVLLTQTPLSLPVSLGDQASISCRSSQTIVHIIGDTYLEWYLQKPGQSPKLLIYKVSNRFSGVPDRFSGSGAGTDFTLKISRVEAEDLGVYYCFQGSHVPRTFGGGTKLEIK
numeric value: 2310

binder: L1D12 (antibody, V domains shown, From a human naive scFv phage library; also called human BLyS antibody L1D12; LID12) VH: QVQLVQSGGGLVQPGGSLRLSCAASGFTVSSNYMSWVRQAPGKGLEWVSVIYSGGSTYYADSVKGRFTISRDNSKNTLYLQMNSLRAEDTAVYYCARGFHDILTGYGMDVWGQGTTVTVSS VL: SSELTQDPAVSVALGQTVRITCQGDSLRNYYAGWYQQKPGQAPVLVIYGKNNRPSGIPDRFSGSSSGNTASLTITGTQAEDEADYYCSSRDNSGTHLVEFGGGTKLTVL
numeric value: 2450

Continue with the next binder.
In plain terms, 78C11D2D12 (antibody, V domains shown, Mouse hybridoma monoclonal antibody purified on Protein G) VH: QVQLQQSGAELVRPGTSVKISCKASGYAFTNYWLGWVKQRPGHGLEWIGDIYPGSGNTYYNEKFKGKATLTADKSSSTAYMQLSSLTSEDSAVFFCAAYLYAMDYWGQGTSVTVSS VL: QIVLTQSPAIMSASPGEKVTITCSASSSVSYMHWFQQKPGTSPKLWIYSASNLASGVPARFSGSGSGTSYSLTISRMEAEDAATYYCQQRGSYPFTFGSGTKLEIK has a documented mouse B lymphocyte proliferation (OD450 nm), antibody 100 nM of 2480
